- systemName: D(2) dopamine receptor (Rattus norvegicus, UniProt P61169)
- Sequence (P61169 whole entry): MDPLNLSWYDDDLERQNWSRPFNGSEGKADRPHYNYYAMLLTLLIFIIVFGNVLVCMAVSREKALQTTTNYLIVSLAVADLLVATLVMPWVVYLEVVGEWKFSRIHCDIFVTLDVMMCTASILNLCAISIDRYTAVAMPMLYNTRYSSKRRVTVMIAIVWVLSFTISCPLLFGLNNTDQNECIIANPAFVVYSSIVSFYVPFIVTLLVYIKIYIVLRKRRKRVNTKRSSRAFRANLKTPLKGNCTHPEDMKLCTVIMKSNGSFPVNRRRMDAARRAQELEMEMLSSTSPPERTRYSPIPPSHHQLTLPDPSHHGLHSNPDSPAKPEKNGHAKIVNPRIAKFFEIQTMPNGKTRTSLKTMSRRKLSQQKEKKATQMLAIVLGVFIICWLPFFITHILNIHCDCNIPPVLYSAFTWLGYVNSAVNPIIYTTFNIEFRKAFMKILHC
- testProtocol: Compound was evaluated for binding affinity to Dopamine receptor D2 labeled with [3H]-SND 919 (0.5 nM) in rat striatal membranes
- Type: cell membranes, Striatum, Membrane
pIC50: −log10 of the molar value.
endpointName: pIC50

| molecule | systemName | pIC50 |
| --- | --- | --- |
| NC1Cc2cccn3ncc(c23)C1 (centres undefined) | D(2) dopamine receptor (Rattus norvegicus, UniProt P61169) | 5.55 |

(a) CCCNC1Cc2cccn3ncc(c23)C1 (centres undefined)
(b) CCCN(CCC)C1Cc2cccn3ncc(c23)C1 (centres undefined)
(c) CCCN(CCC)[C@H]1CCn2cccc2C1
Req: Number of molecules to sort: 3. Sort criterion: pIC50, ascending. Reply format: the labels, ordered as requested.
Resp: a, b, c
(a: 5.57, b: 6.59, c: 7.52)
